target-under-test: p38α MAP kinase (Homo sapiens, UniProt Q16539)
Sequence (Q16539 whole entry): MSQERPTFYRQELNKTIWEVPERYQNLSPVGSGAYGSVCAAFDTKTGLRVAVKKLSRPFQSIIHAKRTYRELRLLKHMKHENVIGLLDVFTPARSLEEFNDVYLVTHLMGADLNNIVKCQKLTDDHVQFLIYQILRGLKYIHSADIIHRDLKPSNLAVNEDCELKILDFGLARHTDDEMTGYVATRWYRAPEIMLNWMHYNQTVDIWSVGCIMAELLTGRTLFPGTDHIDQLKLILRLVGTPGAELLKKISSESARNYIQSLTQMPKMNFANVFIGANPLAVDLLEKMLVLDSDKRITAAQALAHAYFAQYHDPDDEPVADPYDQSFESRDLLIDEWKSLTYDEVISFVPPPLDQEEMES
pIC50: −log10 of the molar value.

smiles-code	pIC50
O=C(O)c1ccc(CCCCCCSCc2cc(-n3cnc4cc(C(=O)O)ccc43)ccc2F)cc1	5.77
